Tested on: B16-F10
ASSAY OVERVIEW: Cytotoxicity against mouse B16F10 cells assessed as decrease in cell viability after 24 hrs by MTT assay
Format: functional, cell-based
CONDITION NOTES: B16-F10, 24 h
METRIC: pIC50
Reminder that pIC50 means the negative base-10 logarithm of the concentration expressed in mol/L.

Data request: Give the measured pIC50 of CC(C)(O)/C=C/C(=O)[C@@](C)(O)[C@H]1C(O)C[C@@]2(C)[C@@H]3CC=C4[C@@H](C=C(O)C(=O)C4(C)C)[C@]3(C)CC[C@]12C (stereo partly specified) .
Data returned: 5.00

----------
ASSAY OVERVIEW: Protein binding in mouse plasma after 4 hrs by rapid equilibrium dialysis method
Assay type: ADME, cell-free
CONDITION NOTES: read-out: PPB
METRIC: fraction unbound at 4 h

Data request: Tell me the measured fraction unbound at 4 h of COc1ccc(C2=Nn3c(nnc3-c3cc(-c4ccc(Cl)cc4)n[nH]3)SC2C)cc1 (stereo unspecified) , please.
Data returned: < 0.001

----------
ASSAY OVERVIEW: Inhibition of [32P]-labeled CREB KID (unknown origin) binding to GST-fused mouse CBP KIX domain preincubated with GST-fused CBP for 15 mins followed by CREB addition and measured after 30 mins by SDS-gel electrophoresis/autoradiographic method
Parameters: species or system Homo sapiens
METRIC: pIC50
pIC50 here: minus log base 10 of the concentration, concentration in moles per litre.

Data request: I'd like to know its pIC50. The molecule in question is `O=C(Nc1ccc(Cl)cc1)c1cc2ccccc2cc1OP(=O)(O)O`
Data returned: 4.05
